- protocol_notes: Liver microsome stability
- Format: in vitro ADME
- applied_conditions: rat liver microsomes 0.25 mg/mL, 1 μM compound, 37° C., 30 minutes, NADPH
Listed below: Rat (%) amount of substrate remaining after the reaction values for each entry.

{"columns": ["compound_smiles", "endpoint_result"],
 "data": [
  ["CC(C)n1c(=O)sc2cc(NN=C(C#N)C#N)ccc21", "70.8%"]
]}

Task: Quick one: give measured Rat (%) amount of substrate remaining after the reaction for `N#CC(C#N)=NNc1ccc2[nH]c(=O)sc2c1`
Result: >100%

Task: Tell me Rat (%) amount of substrate remaining after the reaction reported for `CCn1c(=O)n(C)c2cc(NN=C(C#N)C#N)ccc21`
Result: 91.8%

Task: Look up and state reported Rat (%) amount of substrate remaining after the reaction for `Cn1c(=O)n(C(F)F)c2cc(NN=C(C#N)C#N)ccc21`
Result: 58.5%

Task: Report Rat (%) amount of substrate remaining after the reaction, nothing else, for this molecule: `CC(C)n1c(=O)n(C2CC2)c2ncc(NN=C(C#N)C#N)cc21`
Result: 82.1%

Task: Indicate the recorded Rat (%) amount of substrate remaining after the reaction value for this molecule: `CC(C)n1ccc2c(NN=C(C#N)C#N)cccc2c1=O`
Result: >100%

Task: Provide only the value of recorded Rat (%) amount of substrate remaining after the reaction for `CCn1c(=O)n(C)c2ccc(NN=C(C#N)C#N)cc21`
Result: 86%

Task: Answer with reported Rat (%) amount of substrate remaining after the reaction of `Cn1c(=O)n(C)c2cc(NN=C(C#N)C#N)ccc21`
Result: 91.6%

Task: Read the entry `Cn1ccc2c(NN=C(C#N)C#N)cccc2c1=O` and write its reported Rat (%) amount of substrate remaining after the reaction.
Result: >100%

Task: Report Rat (%) amount of substrate remaining after the reaction, nothing else, for this molecule: `Cn1ccc2ccc(NN=C(C#N)C#N)cc2c1=O`
Result: 88%

---

- Tested on: Tau-BiFC cells
- protocol_notes: Cell viability (stained nuclei count) in Tau-BiFC cells
- Format: cell-based
- applied_conditions: 10 μM compound, 48 hours; Forskolin-only group = 100% cell viability
- Description: In order to select novel tau protein aggregation-inhibiting substances, tau-BiFC cell model, in which formation of tau oligomers in living cells is easily observed, was used. Tau-BiFC cells were aliquoted into a 384-well plate. […] After 48 hours, nuclei in the cells were stained using Hoechst (at a treatment concentration of 2 μg/mL), and BiFC fluorescence intensity was automatically measured using Operetta (PerkinElmer) to count stained nuclei in each well out of the entire well plate. […]
endpoint: Cell viability (% @10 μM) (%)
Give just the numeric value; % need not be written.

{"columns": ["compound", "units_text", "Cell viability (% @10 μM)"],
 "data": [
  ["CC(C)n1ccc2c(NN=C(C#N)C#N)cccc2c1=O [Compound 6]", "%", 118.1],
  ["CCn1c(=O)n(C(C)C)c2ncc(NN=C(C#N)C#N)cc21 [Compound 55]", "%", 124],
  ["N#CC(C#N)=NNc1ccc2c(c1)oc(=O)n2C(F)F [Compound 21]", "%", 135],
  ["COc1cc2c(cc1NN=C(C#N)C#N)n(C)c(=O)n2C [Compound 32]", "%", 132],
  ["CC(C)n1c(=O)n(C)c2ncc(NN=C(C#N)C#N)cc21 [Compound 45]", "%", 113]
]}

Task: Identify the reported Cell viability (% @10 μM) for the following entry. Cn1c(=O)sc2cc(NN=C(C#N)C#N)ccc21 [Compound 14]
Result: 129.1

---

- protocol_notes: Liver microsome stability
- Assay type: in vitro ADME
- applied_conditions: dog liver microsomes 0.25 mg/mL, 1 μM compound, 37° C., 30 minutes, NADPH
endpoint: Dog (%) amount of substrate remaining after the reaction

Examples with answers:
{"columns": ["compound", "endpoint_result"],
 "data": [
  ["N#CC(C#N)=NNc1cccc2c(=O)[nH]ccc12 [Compound 4]", ">100%"],
  ["Cn1c(=O)n(C)c2ncc(NN=C(C#N)C#N)cc21 [Compound 12]", ">100%"]
]}

Pending compound:
Task: Retrieve Dog (%) amount of substrate remaining after the reaction measured for Cn1c(=O)[nH]c2cc(NN=C(C#N)C#N)ccc21 [Compound 17] and print it.
Result: >100%

---

- target_or_test_system: CYP1A2 (Homo sapiens, UniProt P05177)
- Construct: human liver microsomes (0.25 mg/mL); from tissue; host or cells: human liver microsomes
- Sequence (P05177 whole entry): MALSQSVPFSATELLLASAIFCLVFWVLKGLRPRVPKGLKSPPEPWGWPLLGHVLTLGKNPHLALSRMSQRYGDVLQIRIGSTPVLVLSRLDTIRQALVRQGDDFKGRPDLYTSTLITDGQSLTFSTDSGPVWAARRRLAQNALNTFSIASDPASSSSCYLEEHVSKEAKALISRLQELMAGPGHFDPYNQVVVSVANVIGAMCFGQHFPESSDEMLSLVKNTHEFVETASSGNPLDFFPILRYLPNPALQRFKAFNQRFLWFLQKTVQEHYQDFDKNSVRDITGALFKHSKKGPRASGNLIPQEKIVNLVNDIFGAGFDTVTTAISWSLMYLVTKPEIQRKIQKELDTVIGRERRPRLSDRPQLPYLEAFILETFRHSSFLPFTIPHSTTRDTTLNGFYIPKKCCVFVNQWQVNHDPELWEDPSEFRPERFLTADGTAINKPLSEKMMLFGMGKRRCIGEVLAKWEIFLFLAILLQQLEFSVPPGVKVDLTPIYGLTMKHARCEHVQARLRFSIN
- protocol_notes: Inhibitory effect on CYP coenzyme activity, human liver microsomes
- Format: in vitro ADME
- applied_conditions: 10 μM compound, human liver microsomes 0.25 mg/mL, substrate phenacetin, 15 minutes
Each entry belongs to exactly one class, chosen by where its CYP1A2 coenzyme activity (%) with respect to control group not treated falls: interval 1: < 80%; interval 2: ≥ 80% and < 90%; interval 3: ≥ 90%

Completed entries (count: 4):
{"columns": ["compound_smiles", "class_label"],
 "data": [
  ["CCn1c(=O)n(C)c2cc(NN=C(C#N)C#N)ccc21", "interval 3"],
  ["CCn1c(=O)n(C)c2ccc(NN=C(C#N)C#N)cc21", "interval 3"],
  ["CCn1c(=O)n(C(C)C)c2ncc(NN=C(C#N)C#N)cc21", "interval 1"],
  ["CC(C)n1c(=O)oc2cc(NN=C(C#N)C#N)ccc21", "interval 2"]
]}

Next:
Task: Sort `CC(C)n1ccc2ccc(NN=C(C#N)C#N)cc2c1=O` into one of the categories.
Result: interval 1

---

- target_or_test_system: tau protein (Homo sapiens)
- Construct: BiFC fluorescent-protein fragments (type and halves not specified); expressed in transfected cells
- Sequence (P10636 1-441 isoform P10636-8): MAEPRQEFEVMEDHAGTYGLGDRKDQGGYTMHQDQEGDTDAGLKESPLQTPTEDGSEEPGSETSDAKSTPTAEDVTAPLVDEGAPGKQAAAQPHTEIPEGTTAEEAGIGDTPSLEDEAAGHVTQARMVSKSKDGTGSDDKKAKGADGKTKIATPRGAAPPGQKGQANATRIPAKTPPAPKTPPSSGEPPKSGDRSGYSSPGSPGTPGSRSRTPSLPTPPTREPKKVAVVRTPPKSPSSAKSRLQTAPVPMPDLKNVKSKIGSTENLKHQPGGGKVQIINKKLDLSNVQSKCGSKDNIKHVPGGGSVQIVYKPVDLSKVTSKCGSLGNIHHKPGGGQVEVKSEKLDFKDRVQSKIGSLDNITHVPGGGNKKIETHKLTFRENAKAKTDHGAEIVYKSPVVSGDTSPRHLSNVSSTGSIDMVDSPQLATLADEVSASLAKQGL
- protocol_notes: Tau-BiFC cell model, inhibition of Forskolin-induced tau protein aggregation
- Type: cell-based
- applied_conditions: tau-BiFC cells, Forskolin 30 μM, 48 hours
endpoint: IC50
I'd appreciate it if you included the unit after the number.

{"columns": ["compound_smiles", "IC50"],
 "data": [
  ["Cn1c(=O)n(C)c2ncc(NN=C(C#N)C#N)cc21", "870 nM"],
  ["Cc1cc(=O)n(C)c2ccc(NN=C(C#N)C#N)cc12", "10 nM"],
  ["CC(C)n1c(=O)n(C(C)C)c2ncc(NN=C(C#N)C#N)cc21", "50 nM"]
]}

Could you now consider this next compound?
Task: Quote IC50 reported for `CC(C)n1c(=O)oc2ccc(NN=C(C#N)C#N)cc21` please.
Result: 70 nM

---

- protocol_notes: Liver microsome stability
- Type: in vitro ADME
- applied_conditions: rat liver microsomes 0.25 mg/mL, 1 μM compound, 37° C., 30 minutes, NADPH
- Protocol: The stability of liver microsomes due to the compounds prepared according to Examples 1 to 57 was confirmed. […] The amount of the substrate remaining after the reaction was analyzed using the Shimadzu Nexera XR system and TSQ Vantage (Thermo). […]
Rat (%) amount of substrate remaining after the reaction values by entry
Respond numerically; units are % and should not be typed.

{"columns": ["compound", "endpoint_result"],
 "data": [
  ["CC(C)n1c(=O)n(C2CC2)c2ccc(NN=C(C#N)C#N)cc21 [Compound 42]", 78.7],
  ["CC(C)n1c(=O)n(C(C)C)c2cc(NN=C(C#N)C#N)ccc21 [Compound 23]", 77.7],
  ["N#CC(C#N)=NNc1ccc2[nH]c(=O)oc2c1 [Compound 15]", 92.5]
]}

From here, focus on the item given below.
Task: Read the entry Cc1cc2c(NN=C(C#N)C#N)cccc2c(=O)n1C [Compound 7] and write its reported Rat (%) amount of substrate remaining after the reaction.
Result: 89.7

---

- protocol_notes: Liver microsome stability
- Format: in vitro ADME
- applied_conditions: mouse liver microsomes 0.25 mg/mL, 1 μM compound, 37° C., 30 minutes, NADPH
Labels assigned by Mouse (%) amount of substrate remaining after the reaction range: A = under 70%, B = from 70% up to 90%, C = 90% and over

Previously resolved entries follow.
{"columns": ["compound_smiles", "class_label"],
 "data": [
  ["CC(C)n1c(=O)n(C(C)C)c2cc(NN=C(C#N)C#N)ccc21", "B"],
  ["Cn1c(=O)[nH]c2cc(NN=C(C#N)C#N)ccc21", "C"]
]}

Task: Kindly identify the class of `CCn1c(=O)n(C)c2cc(NN=C(C#N)C#N)ccc21` .
Result: B

Task: Band of `N#CC(C#N)=NNc1ccc2[nH]c(=O)oc2c1` ?
Result: C

Task: Band for the recorded Mouse (%) amount of substrate remaining after the reaction of `Cn1c(=O)n(C(F)F)c2cc(NN=C(C#N)C#N)ccc21` ?
Result: B

Task: Kindly state the category for this molecule: `CC(C)n1ccc2c(NN=C(C#N)C#N)cccc2c1=O`
Result: B

Task: # bin lookup: classify `CCn1c(=O)n(C)c2cc(NN=C(C#N)C#N)cnc21` by its Mouse (%) amount of substrate remaining after the reaction
Result: C

Task: Lab note: sort `CC(C)n1c(=O)n(C2CC2)c2ccc(NN=C(C#N)C#N)cc21` into the matching Mouse (%) amount of substrate remaining after the reaction band.
Result: A

Task: Please let me know in which category the item `Cn1ccc2c(NN=C(C#N)C#N)cccc2c1=O` belongs.
Result: C

Task: Given `CC(C)n1c(=O)n(C2CC2)c2ncc(NN=C(C#N)C#N)cc21` , name the class its Mouse (%) amount of substrate remaining after the reaction places it in.
Result: B

Task: Which category does the recorded Mouse (%) amount of substrate remaining after the reaction put `Cc1cc2c(NN=C(C#N)C#N)cccc2c(=O)n1C` in?
Result: C

Task: // bin(item) where item = `Cn1c(=O)sc2cc(NN=C(C#N)C#N)ccc21`
Result: A

Task: Which category does the recorded Mouse (%) amount of substrate remaining after the reaction put `Cn1c(=O)n(C)c2cc(NN=C(C#N)C#N)ccc21` in?
Result: A

Where do these numbers come from? They come from patent US12590066B2.
